# SUBJECT OF TEST: Avi-KRAS G12V (1-169) GppNHp/RAF1 RBD-3xFLAG (52-151) (Homo sapiens, UniProt P01116, G12V)
# Construct: Avi-KRAS G12V (1-169)
# Sequence (P01116 1-169 isoform P01116-2 G12V): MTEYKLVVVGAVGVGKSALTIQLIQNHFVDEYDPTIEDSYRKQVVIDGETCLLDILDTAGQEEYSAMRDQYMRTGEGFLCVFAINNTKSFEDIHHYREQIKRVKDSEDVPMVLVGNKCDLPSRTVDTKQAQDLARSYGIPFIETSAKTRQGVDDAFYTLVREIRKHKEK
# MEASUREMENT DESCRIPTION: Raf1-KRAS G12V-GppNHP disruption HTRF assay (Biological Example 1)
# Type: binding
# CONDITION LABEL: KRAS G12V-GppNHp/RAF1 RBD HTRF
pIC50: −log10 of the molar value.
Reported pIC50 values for the following compounds.

In the examples that follow, each entry is paired with its recorded pIC50.
COMPOUND | MEASUREMENT LABEL | RECORDED MEASUREMENT
CCN(c1nc(OC[C@@]23CCCN2C[C@H](F)C3)nc2c(F)c(-c3ccc(F)c4sc(N)c(C#N)c34)c(C(F)(F)F)cc12)[C@H]1CCN(C(=O)OC)C1 (atropisomer, axis not shown) [Compound 541] | pIC50 | > 7.00
CC(=O)N1CC[C@@H](N(C)c2nc(OC[C@@]34CCCN3C[C@H](F)C4)nc3c(F)c(-c4ccc(F)c5oc(N)c(C#N)c45)c(C(F)(F)F)cc23)[C@H]1C | pIC50 | 5.00 to 6.00
N#Cc1c(N)sc2c(F)ccc(-c3c(C(F)(F)F)cc4c(N5CCn6nc(N7CCOCC7)cc6C5)nc(OC[C@@]56CCCN5C[C@H](F)C6)nc4c3F)c12 | pIC50 | 5.00 to 6.00
CC[C@@H]1[C@H](N(C)c2nc(OC[C@@]34CCCN3C[C@H](F)C4)nc3c(F)c(-c4ccc(F)c5sc(N)c(C#N)c45)c(C(F)(F)F)cc23)CCN1C(=O)C(C)C | pIC50 | 5.00 to 6.00

Read the next record carefully.
Request: pIC50, test system Avi-KRAS G12V (1-169) GppNHp/RAF1 RBD-3xFLAG (52-151) (Homo sapiens, UniProt P01116, G12V), entry CCN(c1nc(OC[C@@]23CCCN2C[C@H](F)C3)nc2c(F)c(-c3ccc(F)c4sc(N)c(C#N)c34)c(C(F)(F)F)cc12)[C@H]1CCS(=O)(=O)C1 (atropisomer, axis not shown) [Compound 491]
< 5.00

// data source = patent US20260042764A1
